Origin of measurements: ChEMBL document CHEMBL2046385

assaySummary: Inhibition of chymotryptic-like of purified human 20S proteasome using Suc-LLVY-AMC as substrate after 30 mins by fluorescence assay
pIC50: −log10 of the molar value.
parameterMeasured: pIC50

Observe how each entry below is paired with its result.
NC[C@@H]1[C@H]2CN3C(=O)c4cccn4[C@@H]4NC(N)=N[C@@]43[C@@H]2[C@]2(N=C(N)N[C@H]2O)[C@H]1Cl (racemic) = 5.26
NC[C@@H]1[C@H]2CN3C(=O)c4cccn4[C@@H]4NC(N)=N[C@@]43[C@@H]2[C@]2(N=C(N)N[C@H]2O)[C@H]1Cl = 5.60

(P) NC1=N[C@]23CCCN2C(=O)c2cc(Br)c(Br)n2[C@@H]3N1 (racemic)
(Q) O=C1N[C@H]2n3c(cc(Br)c3Br)C(=O)N3CCC[C@]23N1 (racemic)
Qu. Could you please tell me which of these two has the higher pIC50: P or Q ? Identify your pick by its label.
Ans. Q
